Overview of reported apparent KD of MS2 coat protein across a group of sequences:
- Tested on: MS2 coat protein
- protocol: apparent KD of MS2 coat protein; designed switch direction (-1 OFF switch, 1 ON switch): -1; higher = weaker reporter binding
- test-conditions: input ligand: FMN 200 uM

- residues: "CCUCCACAGUAGGAUAUCAUCAAACUAUUGUGAUGAGAAGGACUGACAUGAGGAUCACCCAUGUUAACGUGAUG [Mod of Brourd 7 - Jieux - Exclusion 6] (Eterna round: R97, puzzle: Exclusion 6)"
  tested-on: "MS2 coat protein"
  unit-of-measurement: "nM"
  apparent KD of MS2 coat protein: 25.3
- residues: "AAUAACAAGCUGAUCCUUCACAUGAGGAUCACCCAUGUGCUCGUCUUGUAAAGUACUAUCACGAAAGUGAUAGUACA (Eterna round: R97, puzzle: Sensor, turn-off variant 1)"
  tested-on: "MS2 coat protein"
  unit-of-measurement: "nM"
  apparent KD of MS2 coat protein: 127
- residues: "UGAUGUAGAGGAUAUUGUAUGGCUCACAUGAGGAUCACCCAUGUAGGAUCACCUAGAGCCCGAGAAGGCUAGAGGU [Eternabot (L2) Solution 4] (Eterna round: R97, puzzle: Exclusion 5)"
  tested-on: "MS2 coat protein"
  unit-of-measurement: "nM"
  apparent KD of MS2 coat protein: 47
- residues: "GGCAGACAUGAGGAUCACCCAUGUCAGGAUAUGGUGCGAUCGUCGAAAGACGAUAGCACCAGAAGGGACAUGCC [Eli x1 4.03] (Eterna round: R97, puzzle: Exclusion 1)"
  tested-on: "MS2 coat protein"
  unit-of-measurement: "nM"
  apparent KD of MS2 coat protein: 30.5
- residues: "ACGCAUUGCCAAAGGUAGUGCGUAACAUGAGGAUCACCCAUGUAGGAUAUGGUAGGCUUUGCUUACCAGAAGGACAUAAUAAUU [Mat - Exclusion NG 3 - Mod of JL - D4] (Eterna round: R96, puzzle: Exclusion NG 3)"
  tested-on: "MS2 coat protein"
  unit-of-measurement: "nM"
  apparent KD of MS2 coat protein: 43.6
